Assay: Aqueous solubility of crystalline ruxolitinib di-hydrate
Assay type: physicochemical
Conditions: 20 °C, aqueous buffer, thermodynamic from solid; pH 6.0 (PBS), 20-25° C.
result type: solubility (µg/mL)

molecule="N#CC[C@H](C1CCCC1)n1cc(-c2ncnc3[nH]ccc23)cn1 [Ruxolitinib Di-hydrate]" result_type=solubility reported=17.4

====

Assay: Aqueous solubility of crystalline ruxolitinib di-hydrate
Format: physicochemical
Details: KHP buffer, 20 °C, aqueous buffer, thermodynamic from solid; pH 5.5 (KHP), 20-25° C.
result type: solubility (µg/mL)

compound="N#CC[C@H](C1CCCC1)n1cc(-c2ncnc3[nH]ccc23)cn1 [Ruxolitinib Di-hydrate]" result_type=solubility reported=107

// provenance: patent US20250270221A1
